- TARGET: human TLR8 (Homo sapiens)
- Construct: host or cells: HEK-Blue cells (HEK293-derived reporter line)
- Sequence (Q9NR97 27-1041): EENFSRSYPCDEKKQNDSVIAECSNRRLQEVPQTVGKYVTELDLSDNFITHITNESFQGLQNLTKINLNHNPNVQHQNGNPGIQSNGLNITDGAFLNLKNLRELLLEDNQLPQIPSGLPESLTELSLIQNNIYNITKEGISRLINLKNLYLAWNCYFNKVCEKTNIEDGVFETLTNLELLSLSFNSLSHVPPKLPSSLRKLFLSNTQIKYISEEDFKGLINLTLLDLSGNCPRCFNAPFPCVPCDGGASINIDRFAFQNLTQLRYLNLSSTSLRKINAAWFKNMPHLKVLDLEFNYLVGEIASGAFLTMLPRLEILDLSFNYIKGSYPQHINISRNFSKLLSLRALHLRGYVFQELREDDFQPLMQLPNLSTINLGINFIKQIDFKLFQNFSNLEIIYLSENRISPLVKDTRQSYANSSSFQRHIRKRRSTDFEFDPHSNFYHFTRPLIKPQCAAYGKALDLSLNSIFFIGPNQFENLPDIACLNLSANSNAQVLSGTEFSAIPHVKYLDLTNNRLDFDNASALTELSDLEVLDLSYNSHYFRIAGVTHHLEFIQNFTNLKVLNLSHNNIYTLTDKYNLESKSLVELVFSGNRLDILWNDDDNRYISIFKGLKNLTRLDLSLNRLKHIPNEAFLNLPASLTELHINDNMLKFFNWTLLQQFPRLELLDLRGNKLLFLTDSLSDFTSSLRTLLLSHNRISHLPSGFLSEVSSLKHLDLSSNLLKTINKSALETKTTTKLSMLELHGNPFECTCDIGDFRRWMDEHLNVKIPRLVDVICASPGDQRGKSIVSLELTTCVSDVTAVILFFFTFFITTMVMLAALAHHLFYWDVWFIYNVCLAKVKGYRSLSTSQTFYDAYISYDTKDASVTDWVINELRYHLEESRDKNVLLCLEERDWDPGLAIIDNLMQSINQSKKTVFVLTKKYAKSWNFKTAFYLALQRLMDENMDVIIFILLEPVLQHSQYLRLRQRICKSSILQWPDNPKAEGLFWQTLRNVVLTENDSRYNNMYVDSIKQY
- TEST_PROTOCOL: TLR8 inhibition reporter assay (HEK-Blue SEAP)
- Assay type: cell-based
- COND: HEK-Blue cells overexpressing human TLR8, R848 15.9 μM, 22 hour incubation
READOUT_TYPE: IC50 (nM)

SAMPLE_SMILES: COc1cc(-c2[nH]c3ccc(C4CCN(CCNC(=O)CCCCCC(=O)NCCN5CCC(c6ccc7[nH]c(-c8cc(OC)c9ncnn9c8)c(C(C)C)c7c6)CC5)CC4)cc3c2C(C)C)cn2ncnc12
UNIT_LABEL: nM
IC50: 0.28

(1) COc1cc(-c2[nH]c3ccc(C4CCN(CCCCCCCCCCCCCCCCCCN5CCC(c6ccc7[nH]c(-c8cc(OC)c9ncnn9c8)c(C(C)C)c7c6)CC5)CC4)cc3c2C(C)C)cn2ncnc12
(2) COc1cc(-c2[nH]c3ccc(C4CCN(CCNC(=O)CCCCC(=O)NCCN5CCC(c6ccc7[nH]c(-c8cc(OC)c9ncnn9c8)c(C(C)C)c7c6)CC5)CC4)cc3c2C(C)C)cn2ncnc12
(3) COc1cc(-c2[nH]c3ccc(C4CCN(CCNC(=O)CCCCCCCC(=O)NCCN5CCC(c6ccc7[nH]c(-c8cc(OC)c9ncnn9c8)c(C(C)C)c7c6)CC5)CC4)cc3c2C(C)C)cn2ncnc12
Query string: # rank_down: sort by IC50, max first // list labels; follow requested order
Result string: 1, 2, 3
